The measurements presented in this section are drawn from PubChem BioAssay AID1919015.

- Tested on: OVCAR-5 complex spheroids with HUVEC/MSC, viability, % test/control
- assay.text: Anticancer human tumor OVCAR-5 cell line growth inhibition [AhR];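 further: spheroids exposed to compounds for 7 days; 100% = DMSO vehicle control wells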
- reported.conditions: second compound 10 µM; first compound 10 µM; stronger effect = lower value
value.kind: viability, T/C (%)

molecule: CC1COCCN1c1cc(C2(S(C)(=N)=O)CC2)nc(-c2ccnc3[nH]ccc23)n1 (stereo unspecified) + Cc1cncc(-c2nc(NCCc3c[nH]c4ccccc34)c3ncn(C(C)C)c3n2)c1
value.kind: viability, T/C
measured.value: 6.44

molecule: Nc1ccn(C2OC(CO)C(O)C2(F)F)c(=O)n1 (stereo unspecified) + CC(CO)NC(=O)c1cc(-c2ccc(Cl)cc2)nn(-c2cnn(C)c2)c1=O
value.kind: viability, T/C
measured.value: 33.8

molecule: NS(=O)(=O)OCC1CC(n2ccc3c(NC4CCc5ccccc54)ncnc32)CC1O (stereo unspecified) + CC(CO)NC(=O)c1cc(-c2ccc(Cl)cc2)nn(-c2cnn(C)c2)c1=O
value.kind: viability, T/C
measured.value: 12.6

molecule: O=C(C=Cc1cccc(S(=O)(=O)Nc2ccccc2)c1)NO + CC(CO)NC(=O)c1cc(-c2ccc(Cl)cc2)nn(-c2cnn(C)c2)c1=O
value.kind: viability, T/C
measured.value: 4.82

molecule: O=C(c1cc(Cc2n[nH]c(=O)c3ccccc23)ccc1F)N1CCN(C(=O)C2CC2)CC1 + CC(CO)NC(=O)c1cc(-c2ccc(Cl)cc2)nn(-c2cnn(C)c2)c1=O
value.kind: viability, T/C
measured.value: 90.7

molecule: Nc1ccn(C2OC(CO)C(O)C2(F)F)c(=O)n1 (stereo unspecified) + Cc1ccccc1N=Nc1ccc(NC(=O)c2ccnn2C)c(C)c1
value.kind: viability, T/C
measured.value: 31
